biological target: CD3ε homodimer protein (human, UniProt P07766 23-126, limits assumed); test: SPR, immobilized CD3ε homodimer;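 further: biacore T200 surface plasmon resonance at 25 °C, antibody variants flowed as analytes over amine-coupled CD3ε homodimer on a CM4 chip, variant binding amount divided by that of GLS3000 antibody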
Sequence (P07766 23-126 limits assumed): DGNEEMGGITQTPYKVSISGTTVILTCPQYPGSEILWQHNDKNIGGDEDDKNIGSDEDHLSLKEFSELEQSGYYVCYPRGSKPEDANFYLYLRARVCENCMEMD
quantity.name: ratio of amounts bound (vs GLS3000)
I'd appreciate a reply containing only the number, no unit.

Study these solved cases before continuing.
>>> measurement("GLS3000 H34G (antibody, name in Kabat numbering, V domains shown, one-arm format as m2) VH: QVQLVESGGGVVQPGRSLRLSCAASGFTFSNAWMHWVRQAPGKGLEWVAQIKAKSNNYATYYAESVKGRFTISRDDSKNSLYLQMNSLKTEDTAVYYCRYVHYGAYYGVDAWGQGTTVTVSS VL: DIVMTQSPLSLPVTPGEPASISCRSSQSLVHSNRNTYLGWYQQKPGQAPRLLIYKVSNRFSGVPDRFSGSGSGTDFTLKISRVEAEDVGVYYCGQGTQVPYTFGQGTKLEIK")
1.02
>>> measurement("GLS3000 S56V (antibody, name in Kabat numbering, V domains shown, one-arm format as m2) VH: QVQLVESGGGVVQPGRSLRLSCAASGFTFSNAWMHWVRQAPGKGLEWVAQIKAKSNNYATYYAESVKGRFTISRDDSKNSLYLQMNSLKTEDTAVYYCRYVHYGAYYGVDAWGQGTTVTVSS VL: DIVMTQSPLSLPVTPGEPASISCRSSQSLVHSNRNTYLHWYQQKPGQAPRLLIYKVSNRFVGVPDRFSGSGSGTDFTLKISRVEAEDVGVYYCGQGTQVPYTFGQGTKLEIK")
0.95

# evaluate next
What measured ratio of amounts bound (vs GLS3000) goes with GLS3000 L27bS (antibody, name in Kabat numbering, V domains shown, one-arm format as m2) VH: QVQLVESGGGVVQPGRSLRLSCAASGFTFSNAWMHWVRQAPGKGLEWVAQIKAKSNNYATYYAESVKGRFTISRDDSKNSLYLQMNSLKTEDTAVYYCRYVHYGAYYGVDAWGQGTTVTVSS VL: DIVMTQSPLSLPVTPGEPASISCRSSQSSVHSNRNTYLHWYQQKPGQAPRLLIYKVSNRFSGVPDRFSGSGSGTDFTLKISRVEAEDVGVYYCGQGTQVPYTFGQGTKLEIK ? 0.71

The values you see were collected from patent US20220040297A1.
